Origin of measurements: patent US7947686B2

So I've got a bunch of compounds here, and I need their IC50 values.
target: IGF1R (Homo sapiens); assay: Biochemical assay for inhibitors of IGF-1R kinase activity (trans-phosphorylation, 33P-ATP, Dowex); set-up: amino acid residues 960-1367 of precursor protein; made in house; host or cells: H5 insect cells (baculovirus; virus produced in Sf21 cells); conditions: read-out: IGF1R IC50 (μM) Biochemical assay
Sequence (P08069 960-1367): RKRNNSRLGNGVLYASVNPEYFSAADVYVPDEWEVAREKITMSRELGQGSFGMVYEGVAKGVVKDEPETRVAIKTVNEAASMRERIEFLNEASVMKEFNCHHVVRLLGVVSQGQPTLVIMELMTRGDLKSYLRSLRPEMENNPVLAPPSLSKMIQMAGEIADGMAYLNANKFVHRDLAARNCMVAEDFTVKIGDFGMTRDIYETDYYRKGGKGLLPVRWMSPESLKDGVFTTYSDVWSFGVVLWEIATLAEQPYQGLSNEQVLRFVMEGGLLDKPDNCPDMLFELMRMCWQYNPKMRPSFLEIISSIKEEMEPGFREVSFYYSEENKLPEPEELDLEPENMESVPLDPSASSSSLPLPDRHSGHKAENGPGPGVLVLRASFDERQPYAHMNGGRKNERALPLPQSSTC
One number for each entry, in µM.

Could I get IC50 for every one of these entries?
1. CN1CCN(c2ccc(C(=O)Nc3n[nH]c4c3CN(S(=O)(=O)c3cc(F)cc(F)c3)CC4(C)C)c(NC(=O)C3CCOCC3)c2)CC1
2. CN1CCN(c2ccc(C(=O)Nc3n[nH]c4c3CN(S(=O)(=O)c3cc(F)cc(F)c3)CC4)c(NCc3ccco3)c2)CC1
3. CN1CCN(c2ccc(C(=O)Nc3n[nH]c4c3CN(S(=O)(=O)c3cc(F)cc(F)c3)CC4)c(NC(=O)c3ccc[nH]3)c2)CC1

A)
0.14
0.055
0.049
